These measurements were taken from patent US20050203007A1.

- measured-on: T1, secreted, soluble Kex2 (Saccharomyces cerevisiae, UniProt P13134 114-613, limits assumed)
- T1 construct: Secreted, soluble construct; also called kexin
- T1 sequence (looked up): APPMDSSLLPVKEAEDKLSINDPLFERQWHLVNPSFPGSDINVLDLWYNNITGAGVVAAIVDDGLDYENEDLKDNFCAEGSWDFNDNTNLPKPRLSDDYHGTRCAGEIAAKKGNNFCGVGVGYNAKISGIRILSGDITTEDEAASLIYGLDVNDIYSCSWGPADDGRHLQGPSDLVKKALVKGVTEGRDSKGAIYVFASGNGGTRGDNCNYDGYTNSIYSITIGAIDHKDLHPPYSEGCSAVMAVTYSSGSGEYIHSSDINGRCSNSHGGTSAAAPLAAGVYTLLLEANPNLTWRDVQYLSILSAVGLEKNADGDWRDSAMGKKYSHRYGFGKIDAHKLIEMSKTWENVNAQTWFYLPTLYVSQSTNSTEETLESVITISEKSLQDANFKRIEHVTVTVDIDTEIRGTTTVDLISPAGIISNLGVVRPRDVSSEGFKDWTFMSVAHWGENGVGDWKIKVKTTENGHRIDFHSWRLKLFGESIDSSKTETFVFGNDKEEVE
- test-details: enzyme inhibition, purified variant
Measured pKi, listed per entry for reference.
To interpret pKi, take it as minus log10 of a concentration measured in moles per litre.

Trp49-R4R1-eglin (designed binder, R4R1 template; N-terminal Met removed) SMGSELKSFPEVVGKTVDQAREYFTLHYPQYDVYFLPEGSRVTRDLRWNRVRVFYNPGTNVVNHVPHVG = 8.92

The binder R4R1-eglin (designed binder, N-terminal Met removed; also called Tyr49-R4R1-; D33Y49) SMGSELKSFPEVVGKTVDQAREYFTLHYPQYDVYFLPEGSRVTRDLRYNRVRVFYNPGTNVVNHVPHVG showed pKi equal to 9.04

pKi recorded for this binder, Glu49-R4R1-eglin (designed binder, R4R1 template; N-terminal Met removed) SMGSELKSFPEVVGKTVDQAREYFTLHYPQYDVYFLPEGSRVTRDLRENRVRVFYNPGTNVVNHVPHVG , is 10.44

response.value for Tyr49Ala-R4R1-eglin (designed binder, R4R1 template; N-terminal Met removed; also called Ala49-R4R1-) SMGSELKSFPEVVGKTVDQAREYFTLHYPQYDVYFLPEGSRVTRDLRANRVRVFYNPGTNVVNHVPHVG (field: pKi) = 9.00

The measured pKi associated with Ser49-R4R1-eglin (designed binder, R4R1 template; N-terminal Met removed) SMGSELKSFPEVVGKTVDQAREYFTLHYPQYDVYFLPEGSRVTRDLRSNRVRVFYNPGTNVVNHVPHVG reads 9.68

Input Tyr49Asp-R4R1-eglin (designed binder, R4R1 template; N-terminal Met removed; also called Asp49-R4R1-eglin; Asp49-R4R1-) SMGSELKSFPEVVGKTVDQAREYFTLHYPQYDVYFLPEGSRVTRDLRDNRVRVFYNPGTNVVNHVPHVG . Output pKi: 10.25

# pKi of Met49-R4R1-eglin (designed binder, R4R1 template; N-terminal Met removed) SMGSELKSFPEVVGKTVDQAREYFTLHYPQYDVYFLPEGSRVTRDLRMNRVRVFYNPGTNVVNHVPHVG = 9.00
